Target: antibody C1, specific for the CRP-derived 8-mer PET sequence YEVQGEVF
Assay: peptide competition assay, soluble PET against immobilized PET for antibody C1
recorded endpoint: pIC50
pIC50 here: minus log base 10 of the concentration, concentration in moles per litre.

Which pIC50 value is on record for YEVQGEVF [CRP-derived 8-mer PET peptide YEVQGEVF] ?
6.00
